Data credit: PubChem BioAssay (NCI)

Tested on: UACC-62 melanoma
Assay: NCI-60 one-dose screen, 48 h (100 = growth as untreated, 0 = no growth, -100 = all killed)
Details: 10 µM unless noted
The panel holds about 83,000 compounds, 20% with a hit somewhere; the sample as a whole holds those more often.
In this section, each of the compounds is paired with its reported growth.
All answers are understood in %, so give the number only.

Give recorded growth. C=CCN1C(=O)c2cccc3c(-c4ccc5c(c4)ncn5C4CCCCC4)ccc(c23)C1=O 44

Please report growth for the following compound: NC[C@@](O)(c1ccc(Cl)cc1)c1ccc(-c2cn[nH]c2)cc1 -2.01

----------
Tested on: 786-0 renal
Experiment: NCI-60 one-dose screen, 48 h
Conditions: 10 µM unless noted
Compounds without any hit were thinned out: in the full panel of roughly 83,000, 20% have a hit. The source made the active and inactive calls. The calls were made as follows: active = growth percent below 10; inactive = the rest.
// classify into active, inactive

molecule	class name
CCN1CCN(c2cc(C)nc(N(CCCNc3ccnc4cc(Cl)ccc34)Cc3ccc4c(c3)OCO4)n2)CC1	active

Could you check what this test reported for NS(=O)(=O)c1ccc(CCN2C(=O)/C(=C\c3ccc(Cl)cc3)C=C2c2ccc3ccccc3c2)cc1 ? inactive

Which outcome did this test record for the molecule CC(=O)NCC(=O)N1[C@@H]2CC[C@H]1c1ccc(Nc3ncc(C(F)(F)F)c(NC4CCC4)n3)cc12 ? inactive

Short answer needed: outcome of this test for O=C(Nc1cccc(Cl)c1)Nc1ncc(CCNc2ncnc3ccsc23)s1 ? inactive

Write down the call the test reported for this molecule. Item: CC(C)=CCc1cc2c(cc1O)C1=C(C(=O)C3=C(C1=O)S(=O)(=O)CCN3)C(C=C(C)C)O2 (stereo not drawn) active

State the result this test recorded for COc1cc(F)c(F)c(Nc2ccc(I)cc2F)c1NS(=O)(=O)C1(C[C@H](O)CO)CC1 . inactive

Per the records of this test, what outcome belongs to Cc1nc(-c2cn3c(n2)-c2ccc(-c4cnn(C(C)(C)C(N)=O)c4)cc2OCC3)n(C(C)C)n1 ? active

Write down the call the test reported for this molecule. Item: C[C@@H](Oc1cc(C(=O)Nc2ccc(C(=O)N3CCN(C)CC3)cc2)nnc1N)c1c(Cl)ccc(F)c1Cl inactive

What is the recorded call for this molecule in the test? Cn1cc(-c2ccc(F)c(C(F)(F)F)c2)nc1C1CCN(c2ncnc3[nH]ncc23)CC1 inactive

Please state the recorded outcome for this molecule: NC(=O)N1N=C(c2ccc(Cl)cc2)CC1c1cn(-c2ccccc2)nc1-c1ccc(Cl)cc1 (stereo not drawn) active

----------
System: T-47D breast
Assay: NCI-60 one-dose screen, 48 h
Conditions: 10 µM unless noted
This is part of a sample that, as a whole, favours compounds with a hit. Of some 83,000 tested, about 20% had one in any assay. Active and inactive are the calls of the source. Rule for the calls: active = growth percent below 10; inactive = the rest.
# output must be one of True = active, False = inactive

Worked set:
compound	class name
Nc1nc(=S)c2ncn(C3OC(COC(=O)c4ccc(Cl)cc4)C(OC(=O)c4ccc(Cl)cc4)C3OC(=O)c3ccc(Cl)cc3)c2[nH]1 (configuration not stated)	False
Cc1ccccc1N1C(c2ccccc2)=NNC12C=CC(=O)C=C2Cl (configuration not stated)	False

Identify the outcome logged in this assay for the compound shown: CC(C)c1cc(CNc2nc(Nc3cc(C4CC4)[nH]n3)cc(N3CCN(C)CC3)n2)on1 True

Test call, this compound: CC(C)c1ccc(/C=N/Nc2nc3ccccc3s2)cc1 False

Outcome logged for CNC(=O)c1cnc(C)nc1-c1cc(C(C)(C)C)c(O)c(C(C)(C)C)c1 in this assay: False

Which outcome did this test record for the compound COCCOc1cnc2ccn([C@H](C)c3nnc4c(F)cc(-c5cnn(C)c5)cn34)c(=O)c2c1 ? False

Check the results log: what was the call for Cc1cc2c(-c3nc4ccccn4c3NC3CCCCC3)c(O)c(O)cc2c(O)c1-c1c(C)cc2c(-c3nc4ccccn4c3NC3CCCCC3)c(O)c(O)cc2c1O ? False

Dear colleague, could you share the recorded outcome for CNc1ncc2cc(-c3cc(NC(=O)NCCC(C)(C)C)c(F)cc3C)c(C)nc2n1 when you have a moment? True

Would you mind telling me which call this test gave Cc1nc(-c2cn3c(n2)-c2ccc(-c4cnn(C(C)(C)C(N)=O)c4)cc2OCC3)n(C(C)C)n1 ? True

Dear colleague, could you share the recorded outcome for O=S1(=O)OC(c2ccc(O)c(Cl)c2)(c2ccc(O)c(Cl)c2)c2ccccc21 when you have a moment? False

----------
Tested on: MDA-MB-231 breast
Test: NCI-60 one-dose screen, 48 h
Conditions: 10 µM unless noted
Description: Cells are grown in 96 well plates and exposed to the test compound for 48 hours. Compounds are tested at a single concentration, which is 10^-5 M for most compounds. The reported endpoint is percent growth (GI% or GIPRCNT), where numbers from 0 - 100% represent growth inhibition, and numbers from -100% - 0 represent cell death. For example, a value of 40 represents 60% growth inhibition. A value of 0 means no net growth occurred over the course of the experiment. […]
Compounds without any hit were thinned out: in the full panel of roughly 83,000, 20% have a hit. The source made the active and inactive calls. How the source made its calls: active means growth percent below 10; inactive means the rest.
Write down one outcome, taken from active, inactive

molecule	class name
COC(=O)CCCNc1c(-c2c(O)c(O)cc3c(O)c(-c4c(C)cc5c(-c6nc7ccccn7c6NCCCC(=O)OC)c(O)c(O)cc5c4O)c(C)cc23)nc2ccccn12	inactive
CNC(=O)c1cc(Oc2ccc(NC(=O)Nc3cc(C(C)(C)C)nn3-c3ccc4ncccc4c3)c(F)c2)ccn1	active
Cn1cc(-c2[nH]c3cc(NC(=O)[C@H](N)C4CCCCC4)cc4c3c2C=NNC4=O)cn1	active
Cc1nc(-c2cn3c(n2)-c2ccc(-c4cnn(C(C)(C)C(N)=O)c4)cc2OCC3)n(C(C)C)n1	inactive
C[C@H]1Oc2cc(cnc2N)-c2c(nn(C)c2C#N)CN(C)C(=O)c2ccc(F)cc21	inactive
Cc1ccccc1Nc1nc2nonc2nc1Nc1cccc(C)c1C	inactive
Cn1nccc1Nc1nccc(-c2ccn([C@H](CO)c3ccc(Cl)c(F)c3)c(=O)c2)n1	inactive
CCOc1cccc(/C=N/NC(=O)c2ccccc2Nc2ccnc(C(F)(F)F)c2)c1O	inactive
CC(C)(C)c1cnc(CSc2cnc(NC(=O)C3CCNCC3)s2)o1	active
COC(=O)C1=C(C(=O)OC)C23C=C(C)C1C2=C(C)C1(CC1)[C@@](C)(O)C3=O (stereo partly specified)	active

# fetch the recorded call for COc1cc(Nc2ncc(F)c(Nc3ccc4c(n3)NC(=O)C(C)(C)O4)n2)cc(OC)c1OC here inactive

Which outcome was assigned to CCCNC(=O)c1cn2ncnc(Nc3cc(C(=O)NC4CC4)ccc3C)c2c1C in this test? inactive

Check the results log: what was the call for CCN(CC)CCN1C(=O)c2cccc3c(-c4ccc5c(c4)ncn5C4CCCCC4)ccc(c23)C1=O ? inactive

Identify the outcome logged in this assay for the molecule shown: CCCCCCCC(=O)SCC/C=C/[C@@H]1CC(=O)NCc2cc(ccn2)C2=N[C@@](C)(CS2)C(=O)N[C@@H](C(C)C)C(=O)O1 active

Please let me know the test result on file for COc1cc2nccc(Oc3ccc(NC(=O)Nc4cc(C)on4)c(Cl)c3)c2cc1OC . inactive

Kindly provide the recorded test outcome for the following molecule: O=C(CNc1nnc(-c2ccc(Cl)cc2)o1)Nc1ccc(-c2nc3ccccc3s2)cc1 inactive

Each molecule tested received a call. Report the one for CCN1CCN(c2cc(C)nc(N(CCCNc3ccnc4cc(Cl)ccc34)Cc3ccc4c(c3)OCO4)n2)CC1 . active

Query: recorded result category for N#CC(C#N)=NO in this test inactive

Short answer needed: outcome of this test for CC(CCCC(=O)O)c1ccoc1 (stereo unspecified) ? inactive

What outcome does the record of this test show for C=C1C(=O)O[C@H]2[C@H]1CC/C(Cn1cc(-c3cc(C)c(C)cc3C)nn1)=C\CC[C@@]1(C)O[C@@H]21 ? active

Could you check what this test reported for COc1ccc(C2CC(=O)c3c(O)c(OC)c(OC)c(OC)c3O2)c(O)c1 (stereo unspecified) ? inactive

GET /call?item= CCCCCCCC(=O)SCC/C=C/[C@@H]1CC(=O)NCc2cccc(n2)C2=N[C@@](C)(CS2)C(=O)N[C@@H](C(C)C)C(=O)N1 returns the recorded outcome of this test. inactive

So what was the verdict on CC(C)OP(=O)(CCC(=O)c1c[nH]c2ccccc12)OC(C)C in this test? inactive

Which outcome was assigned to Nc1ncnc2c1c(-c1cccc(OCc3ccccc3)c1)cn2C1CC(CN2CCC2)C1 (stereo unspecified) in this test? active

Check the results log: what was the call for CC[C@H](CO)Nc1nc(NCc2ccccc2)c2ncn(C(C)C)c2n1 ? inactive

----------
Tested on: SR leukemia
Assay: NCI-60 one-dose screen, 48 h (100 = growth as untreated, 0 = no growth, -100 = all killed)
Settings: 10 µM unless noted
About 83,000 compounds went through this panel and 20% of them were active in at least one assay; those are over-represented in the sample as a whole.
Listed below: growth values for each entry.
# output: bare number, implied unit %

Study these solved cases before continuing.
compound	test target	growth (%)
O=C(NO)c1ccc(Cn2c(=O)n(-c3ccccc3F)c(=O)c3ccccc32)cc1	SR leukemia	1.63
CN1CC[C@@H](c2c(O)cc(O)c3c(=O)cc(-c4ccccc4Cl)oc23)[C@@H]1CO	SR leukemia	1.89
Cn1cnc2c(F)c(Nc3ccc(Br)cc3F)c(C(=O)NOCCO)cc21	SR leukemia	64.6
COc1cc2c(cc1OCCCN1Cc3ccc(OCCCCC(=O)N4CCC(CCN5CCCC5)CC4)cc3C1)N=C(N)C21CCCC1	SR leukemia	1.87
NC(=O)N1N=C(c2ccc(Cl)cc2)CC1c1cn(-c2ccccc2)nc1-c1ccc(Cl)cc1 (stereo not drawn)	SR leukemia	67.3

Name the recorded growth of the item Cc1ccc(F)c(NC(=O)Nc2ccc(-c3cccc4[nH]nc(N)c34)cc2)c1 in your answer. 4.39

Answer with the recorded growth of O=C1CC(c2cccc(F)c2)c2c(n[nH]c2-c2ccc(Cl)cc2)N1 (stereo not drawn) only. 89.3

Specify reported growth for the compound shown: COC(=O)[C@]12CC[C@@H](C)[C@H](C)[C@@H]1C1=CC[C@@H]3[C@@]4(C)C[C@@H](OC(=O)/C=C/c5ccccc5)[C@H](O)[C@@](C)(CO)[C@@H]4[C@H](O)C[C@@]3(C)[C@]1(C)CC2 -18.4
